Numbers sourced from patent US10174013B2.

# System: Jeko-1 cells
# assay_explanation: Growth inhibition, MTS assay, Jeko-1
# Format: cell-based, Human
# experimental_parameters: Homo sapiens, JeKo-1; 72 hours, MTS cell viability; read-out: Jeko-1 ED50
pIC50: −log10 of the molar value. Structures can show the parent of a compound that is named as a salt.
Hi! Could you tag entries with pIC50 below 6 as Criterion met, and those at or above as Criterion not met? Much appreciated.

Recorded results for 8 molecules are shown here.
1) CC(C)n1c(NC2CCC(N)CC2)nc2c([N+](=O)[O-])c(Br)c(Br)cc21 (centres unmarked) :: Criterion met
2) CCn1c(NC2CCCNCC2)nc2c([N+](=O)[O-])c(Br)c(Br)cc21 (centres unmarked) :: Criterion met
3) CCn1c(NC2CCC(O)CC2)nc2c([N+](=O)[O-])c(Br)c(Br)cc21 (centres unmarked) [Example 22B] :: Criterion met
4) CCn1c(N2CCCC2CN)nc2c([N+](=O)[O-])c(Br)c(Br)cc21 (centres unmarked) :: Criterion met
5) CCn1c(N2CCNCC2C)nc2c([N+](=O)[O-])c(Br)c(Br)cc21 (centres unmarked) :: Criterion not met
6) CC(C)=CCn1c(N2CCNCC2)nc2c([N+](=O)[O-])c(Br)c(Br)cc21 [Example 2E, hydrochloride] :: Criterion met
7) CCn1c(N2CCC[C@H](N)C2)nc2c(C#N)c(Br)c(Br)cc21 :: Criterion met
8) CCCn1c(NCC(O)CN)nc2c([N+](=O)[O-])c(Br)c(Br)cc21 (centres unmarked) :: Criterion met

QUERY: # strict comparison: is reported pIC50 < 6? input = CC(C)n1c(N2CCNCC2)nc2c([N+](=O)[O-])c(Br)c(Br)cc21 [Example 2A, hydrochloride]
RESULT: Criterion not met

QUERY: # strict comparison: is reported pIC50 < 6? input = CC(C)n1c(NC2CCC(N)CC2)nc2c(C#N)c(Br)c(Br)cc21 (centres unmarked)
RESULT: Criterion met

QUERY: # strict comparison: is reported pIC50 < 6? input = CC(C)n1c(C2CCNCC2)nc2c([N+](=O)[O-])c(Br)c(Br)cc21 [Example 26A]
RESULT: Criterion not met

----------
# assayed_target: CDK2/E (Homo sapiens (Human), UniProt P24941)
# assay_explanation: ADP-Glo Kinase Assay, CDK2/E
# Format: biochemical
# experimental_parameters: 1 μM compound; read-out: CDK2/E % INH (1 μM)
parameter: inhibition at 1 µM

// below: answered compounds
1. CC(C)n1c(NCC2CNCCO2)nc2c(C#N)c(Br)c(Br)cc21 (stereo not drawn) :: < 5%
2. COC(CN)CNc1nc2c([N+](=O)[O-])c(Br)c(Br)cc2n1C(C)C (stereo not drawn) [Example 22AB] :: < 5%

QUERY: Supply inhibition at 1 µM value. Item: CC(O)Cn1c(N2CCNCC2)nc2c([N+](=O)[O-])c(Br)c(Br)cc21 (stereo not drawn)
RESULT: 21%

----------
# assayed_target: Pim-3 (Homo sapiens (Human))
# assay_explanation: ADP-Glo Kinase Assay, Pim-3
# Format: biochemical
# experimental_parameters: 1 μM compound; read-out: Pim-3 % INH (1 μM)
# Description: Compounds of the present invention were tested for their inhibitory activity against Pim-1, Pim-2, Pim-3, Flt3 wt, Flt3 ITD, CDK2/E and DYRK1. The testing of the compounds was carried out using the ADP-Glo™ Kinase Assay from Promega Corporation (Madison, Wis., USA). The ADP-Glo™ Kinase Assay is a luminescent ADP detection assay to measure kinase activity by quantifying the amount of ADP produced during a kinase reaction. […]
Counter-ions that a name gives are not always drawn.
parameter: inhibition at 1 µM (%)
Use % as the unit, but write only the number.

// below: answered compounds
1) CC(C)n1c(N2CCOC(CN)C2)nc2c(C#N)c(Br)c(Br)cc21 (stereo not shown) :: 62
2) COC(CN)CNc1nc2c([N+](=O)[O-])c(Br)c(Br)cc2n1C(C)C (stereo not shown) [Example 22AB] :: 76
3) CCn1c(N2CCC[C@H](N)C2)nc2c(C#N)c(Br)c(Br)cc21 :: 86
4) CC(C)n1c(NC2CCC(N)CC2)nc2c(C#N)c(Br)c(Br)cc21 (stereo not shown) :: 62
5) CC(C)n1c(N2CCCC(CO)C2)nc2c([N+](=O)[O-])c(Br)c(Br)cc21 (stereo not shown) [Example 22H] :: 71
6) C#CCn1c(NCCCN)nc2c([N+](=O)[O-])c(Br)c(Br)cc21 [Example 2G, hydrochloride] :: 34
7) CCn1c(N2CCNCC2)nc2c(C(F)(F)F)c(Br)c(Br)cc21 :: 66
8) CCn1c(N2CC[C@H](N)C2)nc2c(C#N)c(Br)c(Br)cc21 :: 91

QUERY: Quote inhibition at 1 µM with test system Pim-3 (Homo sapiens (Human)) for COC(CN)CNc1nc2c(C#N)c(Br)c(Br)cc2n1C(C)C (stereo not shown) [Example 22AC]
RESULT: 61

QUERY: Quote inhibition at 1 µM with test system Pim-3 (Homo sapiens (Human)) for "CC(C)n1c(N2CC[C@@H](N)C2)nc2c(C#N)c(Br)c(Br)cc21"
RESULT: 95

QUERY: Quote inhibition at 1 µM with test system Pim-3 (Homo sapiens (Human)) for CC(C)Cn1c(NCC(O)CN)nc2c([N+](=O)[O-])c(Br)c(Br)cc21 (stereo not shown)
RESULT: 86

QUERY: Quote inhibition at 1 µM with test system Pim-3 (Homo sapiens (Human)) for CC(O)Cn1c(N2CCNCC2)nc2c([N+](=O)[O-])c(Br)c(Br)cc21 (stereo not shown)
RESULT: 48

QUERY: Quote inhibition at 1 µM with test system Pim-3 (Homo sapiens (Human)) for CC(C)n1c(NC2CCNC2)nc2c([N+](=O)[O-])c(Br)c(Br)cc21 (stereo not shown)
RESULT: 82

QUERY: Quote inhibition at 1 µM with test system Pim-3 (Homo sapiens (Human)) for CCn1c(Nc2ccccc2N)nc2c([N+](=O)[O-])c(Br)c(Br)cc21 [Example 22N]
RESULT: 44

QUERY: Quote inhibition at 1 µM with test system Pim-3 (Homo sapiens (Human)) for O=[N+]([O-])c1c(Br)c(Br)cc2c1nc(N1CCNCC1)n2C1CC1 [Example 21A, trifluoroacetate]
RESULT: 71

QUERY: Quote inhibition at 1 µM with test system Pim-3 (Homo sapiens (Human)) for CC(C)n1c(NC2CCC(N)CC2)nc2c([N+](=O)[O-])c(Br)c(Br)cc21 (stereo not shown)
RESULT: 46

QUERY: Quote inhibition at 1 µM with test system Pim-3 (Homo sapiens (Human)) for CCn1c(N2CCNC(C)C2)nc2c([N+](=O)[O-])c(Br)c(Br)cc21 (stereo not shown) [Example 22X]
RESULT: 56

QUERY: Quote inhibition at 1 µM with test system Pim-3 (Homo sapiens (Human)) for CCn1c(N2CCNC(=O)C2)nc2c([N+](=O)[O-])c(Br)c(Br)cc21 [Example 22A]
RESULT: 28

QUERY: Quote inhibition at 1 µM with test system Pim-3 (Homo sapiens (Human)) for CC(C)n1c(N2CCOC(CN)C2)nc2c([N+](=O)[O-])c(Br)c(Br)cc21 (stereo not shown)
RESULT: 83

QUERY: Quote inhibition at 1 µM with test system Pim-3 (Homo sapiens (Human)) for CC(C)n1c(NC2CCCNC2)nc2c(C#N)c(Br)c(Br)cc21 (stereo not shown)
RESULT: 56

QUERY: Quote inhibition at 1 µM with test system Pim-3 (Homo sapiens (Human)) for CCn1c(N2CCCN(C)CC2)nc2c([N+](=O)[O-])c(Br)c(Br)cc21 [Example 22M]
RESULT: 29

QUERY: Quote inhibition at 1 µM with test system Pim-3 (Homo sapiens (Human)) for CCn1c(NC2CCNC2)nc2c([N+](=O)[O-])c(Br)c(Br)cc21 (stereo not shown)
RESULT: 71

QUERY: Quote inhibition at 1 µM with test system Pim-3 (Homo sapiens (Human)) for CCn1c(N2CCNCC2)nc2c([N+](=O)[O-])c(Br)c(Br)cc21 [Example 1A, hydrochloride]
RESULT: 65

QUERY: Quote inhibition at 1 µM with test system Pim-3 (Homo sapiens (Human)) for CC(C)n1c(NCC2CNCCO2)nc2c(C#N)c(Br)c(Br)cc21 (stereo not shown)
RESULT: 77

QUERY: Quote inhibition at 1 µM with test system Pim-3 (Homo sapiens (Human)) for "CCn1c(N2CCNCC2)nc2c(C#N)c(Br)c(Br)cc21"
RESULT: 92
